Molecular target: FBW7^ARG+pCycE (Homo sapiens, UniProt Q969H0, R505L)
Construct: GST (TEV site and flexible linker) (N, cleaved yes); made in house; host or cells: SF9 insect cells (baculovirus)
Sequence (Q969H0 64-707 R505L): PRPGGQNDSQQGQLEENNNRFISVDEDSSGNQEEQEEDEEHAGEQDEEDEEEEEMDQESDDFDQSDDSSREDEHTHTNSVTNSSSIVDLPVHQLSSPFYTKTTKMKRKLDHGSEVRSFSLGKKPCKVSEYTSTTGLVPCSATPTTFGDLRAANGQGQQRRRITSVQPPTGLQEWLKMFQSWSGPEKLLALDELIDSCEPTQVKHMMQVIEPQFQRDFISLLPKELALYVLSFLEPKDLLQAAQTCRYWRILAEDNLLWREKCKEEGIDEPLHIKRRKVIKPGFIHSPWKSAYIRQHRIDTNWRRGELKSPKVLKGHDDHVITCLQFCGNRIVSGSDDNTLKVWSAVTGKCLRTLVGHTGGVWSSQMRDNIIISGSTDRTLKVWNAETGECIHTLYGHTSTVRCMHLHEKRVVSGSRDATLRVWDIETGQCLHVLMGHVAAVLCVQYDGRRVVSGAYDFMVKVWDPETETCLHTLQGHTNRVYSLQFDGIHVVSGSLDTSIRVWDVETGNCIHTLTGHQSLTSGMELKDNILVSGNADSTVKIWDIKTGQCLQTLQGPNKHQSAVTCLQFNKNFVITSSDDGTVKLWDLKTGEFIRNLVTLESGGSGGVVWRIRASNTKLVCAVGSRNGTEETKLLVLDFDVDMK
Sequence (P63208 2-163 partner): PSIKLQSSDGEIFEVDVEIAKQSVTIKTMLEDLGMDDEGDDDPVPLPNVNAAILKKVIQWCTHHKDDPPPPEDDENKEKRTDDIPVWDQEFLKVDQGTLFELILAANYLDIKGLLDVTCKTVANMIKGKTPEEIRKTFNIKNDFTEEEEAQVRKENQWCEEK
Experiment: FBW7^ARG-cyclin E agonist ALPHAscreen (primary PRUN, confirmation CRUN1, dose-response DRUN)
Type: binding
Conditions: DRUN dose-response, triplicate, 10 point 3-fold dilution, max approx. 87 μM; read-out: FBW7 ACT Final EC50, Molar
Description: FBW7^ARG refers to a class of loss-of-function mutations of the of FBW7 ubiquitin ligase that target a key phosphate-binding arginine residue in the FBW7 substrate-binding domain. […] ALPHAscreen is a bead-based proximity assay wherein donor beads contain a photosensitizer, phthalocyanine, and acceptor beads contain thioxene, anthracene and rubrenein in sufficient quantities to generate a chemiluminescence/fluorescence reaction (FIG. 4A). […] 6. Read ALPHAscreen on Envision […]
Record form. Attribute: EC50. Fill in for each entry.

q: Which measured EC50 value corresponds to O=C(Nc1ccc2c(c1)OCO2)N1CCC(c2nnc(C3CC3)s2)CC1 ?
a: > 65.3 µM

q: Similarly, CCN(CC)c1ccc2cc(-c3ccccn3)c(=O)oc2c1 ?
a: > 70.9 µM

q: Similarly, O=C([C@H]1CC[C@H](Nc2nccc(-c3ccc4nc(C5CC5)nc(O)c4c3)n2)CC1)N1CCCC1 ?
a: > 65.3 µM

q: Similarly, Cc1ccc(-c2cccc3cnc(Nc4ccc(-n5cnc(-c6ccccn6)n5)cc4)nc23)cn1.O=C(O)C(F)(F)F ?
a: > 65.3 µM

###

Molecular target: FBW7^ARG+pCycE (Homo sapiens, UniProt Q969H0, R505L)
Construct: GST (TEV site and flexible linker) (N, cleaved yes); made in house; host or cells: SF9 insect cells (baculovirus)
Assay: FBW7^ARG-cyclin E agonist ALPHAscreen (primary PRUN, confirmation CRUN1, dose-response DRUN)
Type: binding
Details: confirmation assay, triplicate, single concentration 26.1 μM; read-out: FBW7 ACT CRUN1 Avg % Response and Stdev
QUANTITY MEASURED: activation at 26.1 µM (%)
Just the number in %, nothing appended.

q: Request: activation at 26.1 µM, test system FBW7^ARG+pCycE (Homo sapiens, UniProt Q969H0, R505L), entry CCN(CC)c1ccc2c(c1)OC(N)=C(C#N)C2c1ccccc1 (stereo not shown)
a: 2.14

q: Similarly, CCC(C)OC(=O)C1=C(C)NC2=C(C(=O)CC(c3ccc(Cl)cc3)C2)C1c1cccc(Cl)c1 (stereo not shown) ?
a: 6.44

q: Similarly, COc1cc(-c2ccnc(N)n2)ccc1NC(=O)[C@H]1COc2ccccc2O1.O=C(O)C(F)(F)F ?
a: 2.52

q: Similarly, COc1ccc(SCC(=O)NNC(=S)Nc2ccccc2)cc1 ?
a: 2.1

###

Record form. Attribute: EC50. Fill in for each entry.
Target: FBW7^ARG+pCycE (Homo sapiens, UniProt Q969H0, R505L)
Construct: GST (TEV site and flexible linker) (N, cleaved yes); made in house; host or cells: SF9 insect cells (baculovirus)
Assay: FBW7^ARG-cyclin E agonist ALPHAscreen (primary PRUN, confirmation CRUN1, dose-response DRUN)
Type: binding
Conditions: DRUN dose-response, triplicate, 10 point 3-fold dilution, max approx. 87 μM; read-out: FBW7 ACT Final EC50, Molar

q: Request: EC50, test system FBW7^ARG+pCycE (Homo sapiens, UniProt Q969H0, R505L), entry NC(c1nc2cc(-c3ccncc3)cnc2[nH]1)c1ccc(F)cc1F.O=C(O)C(F)(F)F (centres unmarked)
a: > 65.3 µM

q: Similarly, COc1ccc(NC(=O)c2cc(S(=O)(=O)N3CCN(c4ccccn4)CC3)ccc2F)cc1 ?
a: > 54.6 µM

q: Similarly, O=C(Nc1ccc2oc(-c3ccc4ccccc4c3)nc2c1)c1cccc(Cl)c1Cl ?
a: > 56.6 µM

q: Similarly, CCSCCOC(=O)C1=C(C)NC2=C(C(=O)CCC2)C1c1ccc(Br)cc1 (centres unmarked) ?
a: > 54.4 µM

q: Similarly, COc1ccccc1-c1ccc(N2CCN(C(=O)COc3ccccc3)CC2)nn1 ?
a: > 65.3 µM

q: Similarly, COc1ccccc1-c1ccc(=O)n(CC(=O)Nc2ccc(C(=O)N3CCCC3)cc2)n1 ?
a: > 65.3 µM

q: Similarly, CC1=C(C(=O)OC(C)C)C(c2ccncc2)C2=C(CC(c3ccccc3)CC2=O)N1 (centres unmarked) ?
a: > 60.9 µM

q: Similarly, CCc1ccc(N2CC(C(=O)NCC(C)(C)CNC(=O)C3CC(=O)N(c4ccc(CC)cc4)C3)CC2=O)cc1 (centres unmarked) ?
a: > 40.4 µM
